Target: EGFR wildtype (WT) (Homo sapiens, UniProt P00533)
Sequence (P00533 25-1210): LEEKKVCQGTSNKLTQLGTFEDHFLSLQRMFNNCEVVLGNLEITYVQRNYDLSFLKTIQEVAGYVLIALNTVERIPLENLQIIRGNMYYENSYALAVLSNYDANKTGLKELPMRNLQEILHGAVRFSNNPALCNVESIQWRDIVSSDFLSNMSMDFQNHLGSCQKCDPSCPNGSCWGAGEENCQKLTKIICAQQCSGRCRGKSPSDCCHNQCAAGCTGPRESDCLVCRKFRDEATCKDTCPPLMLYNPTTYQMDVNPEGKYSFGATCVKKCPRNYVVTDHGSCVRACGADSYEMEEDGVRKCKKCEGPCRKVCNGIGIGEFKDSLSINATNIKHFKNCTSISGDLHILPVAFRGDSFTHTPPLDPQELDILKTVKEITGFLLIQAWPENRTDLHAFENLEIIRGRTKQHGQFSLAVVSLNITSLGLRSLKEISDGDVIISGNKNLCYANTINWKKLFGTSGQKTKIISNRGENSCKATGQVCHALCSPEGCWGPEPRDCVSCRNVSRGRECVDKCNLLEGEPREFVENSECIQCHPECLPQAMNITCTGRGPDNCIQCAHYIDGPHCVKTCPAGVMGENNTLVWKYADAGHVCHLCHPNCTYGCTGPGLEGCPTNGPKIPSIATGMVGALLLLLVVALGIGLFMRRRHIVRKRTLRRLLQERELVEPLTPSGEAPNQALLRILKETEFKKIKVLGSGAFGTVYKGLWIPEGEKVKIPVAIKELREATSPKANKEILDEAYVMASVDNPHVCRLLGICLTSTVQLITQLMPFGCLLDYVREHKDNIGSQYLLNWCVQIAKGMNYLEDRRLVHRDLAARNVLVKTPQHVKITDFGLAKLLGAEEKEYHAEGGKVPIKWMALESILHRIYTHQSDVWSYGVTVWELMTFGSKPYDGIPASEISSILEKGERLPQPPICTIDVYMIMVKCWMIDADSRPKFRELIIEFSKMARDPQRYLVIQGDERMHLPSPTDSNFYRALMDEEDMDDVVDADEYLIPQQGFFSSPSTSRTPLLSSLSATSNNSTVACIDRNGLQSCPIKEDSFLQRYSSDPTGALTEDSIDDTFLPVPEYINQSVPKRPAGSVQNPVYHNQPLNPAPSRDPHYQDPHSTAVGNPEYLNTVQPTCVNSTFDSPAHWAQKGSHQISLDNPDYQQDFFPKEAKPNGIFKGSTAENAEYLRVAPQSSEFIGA
Assay: Biochemical EGFR kinase inhibition assay (Lance Ultra TR-FRET), wildtype
Conditions: Km ATP; read-out: IC50 WT (nM), Km ATP
Binary call on IC50 with cut-off 7 nM: strictly below means yes (1), and equality or higher means no (0).

Previously resolved entries follow.
CC(=O)C1CCN(c2cc(Nc3ccnc(-c4cnn(S(=O)(=O)C5CC5)c4)n3)ncc2C#Cc2cnn(C(F)(F)F)c2)CC1 | no (0)
CN1CCN(Cc2ccc(C#Cc3cnc(Nc4ccnc(-c5cnn(S(=O)(=O)C6CC6)c5)n4)cc3N3CCC4(CCO4)CC3)cc2)CC1 | yes (1)
O=S(=O)(C1CC1)n1cc(-c2nccc(Nc3cc(N[C@H]4CC[C@@H](CO)CC4)c(C#CC4C[C@@H]5CC[C@@H]4O5)cn3)n2)cn1 (some centres unmarked) | no (0)
CC1(O)CCC(CNc2cc(Nc3ccnc(-c4cnn(S(=O)(=O)C5CC5)c4)n3)ncc2C#CC2CCCO2)CC1 (centres unmarked) | no (0)
CS(=O)(=O)N1CCC(C#Cc2cnc(Nc3ccnc(-c4cnn(S(=O)(=O)C5CC5)c4)n3)cc2N[C@H]2CC[C@@H](CO)CC2)CC1 | no (0)
CC1(CO)CCN(c2cc(Nc3ccnc(-c4cnn(S(=O)(=O)C5CC5)c4)n3)ncc2C#CC2CCCO2)CC1 (centres unmarked) | yes (1)
O=S(=O)(C1CC1)N1CCC(C#Cc2cnc(Nc3ccnc(-c4cnn(S(=O)(=O)C5CC5)c4)n3)cc2NC2CCC(CO)CC2)C1 (centres unmarked) | no (0)
C[C@]1(O)CCCN(c2cc(Nc3ccnc(-c4cnn(S(=O)(=O)C5CC5)c4)n3)ncc2C#Cc2cnn(CCF)c2)C1 | no (0)
CC1(CO)CCN(c2cc(Nc3ccnc(-c4cnn(S(=O)(=O)C5CC5)c4)n3)ncc2C#CC2(O)CCOC2)CC1 (centres unmarked) | yes (1)
CS(=O)(=O)N1CCC(C#Cc2cnc(Nc3ccnc(-c4cnn(S(=O)(=O)C5CC5)c4)n3)cc2NCC2CCC(CO)CC2)C1 (centres unmarked) | no (0)

Ask | Consider the compound CC1(O)CCN(c2cc(Nc3ccnc(-c4cnn(S(=O)(=O)C5CC5)c4)n3)ncc2C#CC2CCO[C@H]2C(F)(F)F)CC1 (some centres unmarked) . Is its IC50 strictly less than 7 nM?
Reply | no (0)

Ask | For this compound, is IC50 lower than 7 nM? CC1(CO)CCN(c2cc(Nc3ccnc(-c4cnn(S(=O)(=O)C5CC5)c4)n3)ncc2C#CC2(O)COC2)CC1
Reply | yes (1)

Ask | Item CN(C)CCC1CCCN(c2cc(Nc3ccnc(-c4cnn(S(=O)(=O)C5CC5)c4)n3)ncc2C#Cc2cnn(CCF)c2)C1 (centres unmarked) : IC50 beneath 7 nM, strictly?
Reply | yes (1)
